test system: HIV-1 reporter virus, integrase N155H/E92Q (NHEQ); experiment: Luciferase reporter virus infectivity assay, NHEQ mutant; assay type: cell-based; conditions: Human immunodeficiency virus 1, HEK-293T, read-out: Luciferase assay results NHEQ (EC50)
pEC50: −log10 of the molar value.
Provide the recorded pEC50 for the entries that follow.

Given C[C@H]1CN(C(=O)Cn2ccn3c(=O)c(O)c(-c4ncc(Cc5ccc(F)cc5)s4)nc23)C[C@H](C)O1 [drawing 254] , state its recorded pEC50.
6.00 to 7.00

Given `CN1CCN(C(=O)Cn2ccn3c(=O)c(O)c(-c4ncc(Cc5ccc(F)cc5)s4)nc23)CC1` , state its recorded pEC50.
6.00 to 7.00

Given `C[C@H]1CN(C(=O)Cn2ccn3c(=O)c(O)c(-c4ncc(Cc5ccc(F)c(Cl)c5)s4)nc23)C[C@H](C)O1` , state its recorded pEC50.
6.00 to 7.00

###

Provide the recorded EC50 for the entries that follow.
test system: HIV variant T661 S153Y integrase; assay: Phenosense (PhenoScreen) assay, T661 S153Y variant; format: cell-based; details: Human immunodeficiency virus 1, read-out: Phenosense assay T661 S153Y activity value

Given `O=C(Cn1ccn2c(=O)c(O)c(-c3ncc(Cc4ccc(F)cc4)o3)nc12)N1CCCCC1` , state its recorded EC50.
0.001 to 0.1 µM

Given `Cn1ccn2c(=O)c(O)c(C(=O)NCc3ccc(Cl)c(Cl)c3)nc12` , state its recorded EC50.
0.1 to 1 µM

Given `Cn1ccn2c(=O)c(O)c(C(=O)NCc3ccc(F)cc3)nc12` , state its recorded EC50.
1 to 10 µM

###

target: HIV integrase G140S/Q148H (Human immunodeficiency virus type 1 group M subtype B, UniProt P12497, G1287S/Q1295H); construct: The integrase coding region was then subject to PCR and cloned into a bacterial expression vector; assay: Strand transfer assay (enzyme assay), G140S/Q148H mutant
property.name: IC50

Given `Cn1ccn2c(=O)c(O)c(-c3ncc(Cc4ccc(Cl)cc4)s3)nc12` , state its recorded IC50.
100 to 1000 nM

Given `Cn1ccn2c(=O)c(O)c(-c3ncc(Cc4ccc(Cl)c(Cl)c4)s3)nc12` , state its recorded IC50.
100 to 1000 nM

Given `Cn1ccn2c(=O)c(O)c(-c3ncc(Cc4ccc(F)cc4)s3)nc12` , state its recorded IC50.
1 to 100 nM

Given `Cn1ccn2c(=O)c(O)c(-c3ncc(Cc4ccc(F)c(Cl)c4)s3)nc12` , state its recorded IC50.
100 to 1000 nM

###

target: HIV integrase E92Q/N155H (Human immunodeficiency virus type 1 group M subtype B, UniProt P12497, E1239Q/N1302H); construct: The integrase coding region was then subject to PCR and cloned into a bacterial expression vector; test: Strand transfer assay (enzyme assay), E92Q/N155H mutant
Provide the recorded IC50 for the entries that follow.

Given `Cn1ccn2c(=O)c(O)c(-c3ncc(Cc4ccc(Cl)cc4)s3)nc12` , state its recorded IC50.
100 to 1000 nM

Given `Cn1ccn2c(=O)c(O)c(-c3ncc(Cc4ccc(Cl)c(Cl)c4)s3)nc12` , state its recorded IC50.
100 to 1000 nM

Given `Cn1ccn2c(=O)c(O)c(-c3ncc(Cc4ccc(F)c(Cl)c4)s3)nc12` , state its recorded IC50.
100 to 1000 nM

Given `Cn1ccn2c(=O)c(O)c(-c3ncc(Cc4ccc(F)cc4)s3)nc12` , state its recorded IC50.
100 to 1000 nM
